Tested on: Vero E6
Experiment: cell viability relative to DMSO; higher = less toxic
Conditions: 72 h; 10000 nM
Recorded cell viability, one value per entry.
measurement_name: cell viability (%)

> print(dat)
                                    compound   system  reported.measurement
 1        CCn1nc(C)c2c1C(c1ccccc1)=NCC(=O)N2  Vero E6                  97.1
 2                              NC(CO)(CO)CO  Vero E6                  95.4
 3  CC(C)(C)NCC(O)COc1cccc2[nH]c(C#N)cc12 (centres undefined)  Vero E6                    97
 4     NC(=O)c1cccc(N)c1 [3-amino-benzamide]  Vero E6                   103
 5  CCNC(=O)N1CCN(CCCC(c2ccc(F)cc2)c2ccc(F)cc2)CC1 [amperozide]  Vero E6                  94.1
 6  Nc1ncnc2c1nc(Br)n2[C@@H]1O[C@@H]2COP(=O)(O)O[C@H]2[C@H]1O  Vero E6                    96
 7  O=C(Nc1cccnc1)c1cc(-c2ccnc(F)c2)ccc1OCc1ccccc1  Vero E6                  95.2
 8  O=C1N(c2ccccc2)c2ccccc2C1(Cc1ccncc1)Cc1ccncc1  Vero E6                  99.2
 9          O=c1cc(N2CCOCC2)nc2c3ccccc3ccn12  Vero E6                  95.9
10  CCCn1c(=O)c2[nH]cnc2n(-c2ccc(Cl)cc2)c1=O  Vero E6                    96
11  CC[C@H]1[C@@H](O)[C@@H]2[C@H](CC[C@]3(C)[C@@H]([C@H](C)CCC(=O)O)CC[C@@H]23)[C@@]2(C)CC[C@@H](O)C[C@@H]12  Vero E6                   103
12                           O=C(O)C1=CCNCC1  Vero E6                  98.2
13  CCOC1O[C@H]([C@@H](COCc2ccccc2)OCc2ccccc2)[C@H](OCc2ccccc2)[C@H]1O (some centres undefined) [tribenoside]  Vero E6                   111
14                CN(C)/N=N/c1[nH]cnc1C(N)=O  Vero E6                   100
15  O=C(O)C(Cc1ccccc1[N+](=O)[O-])=NNc1nc(-c2ccc(Cl)c(Cl)c2)cs1  Vero E6                   100
16  NC(=O)c1ccc(-c2nc(-c3ccccn3)c(-c3ccc4c(c3)OCO4)[nH]2)cc1  Vero E6                   105
17  Oc1ccc2c3c1O[C@H]1c4oc5ccccc5c4C[C@@]4(O)[C@@H](C2)N(CC2CC2)CC[C@]314  Vero E6                   108
18  CCOc1cc2ncc(C#N)c(Nc3ccc(OCc4cccc(F)c4)c(Cl)c3)c2cc1NC(=O)/C=C/CN(C)C  Vero E6                   0.2
19  CN1CCN(CCCCN2C(=O)CN(/N=C/c3ccc(-c4ccc(Cl)cc4)o3)C2=O)CC1 [azimilide]  Vero E6                  98.1
20           CCOc1ccccc1C(N)=O [ethenzamide]  Vero E6                  97.3
21  CC1(C)CCC(C)(C)c2cc(C#Cc3ccc(C(=O)O)cc3)ccc21  Vero E6                  94.2
22  Cc1ccc2c(N3CCN(CCc4cccc(N5CCNC5=O)c4)CC3)cccc2n1  Vero E6                  96.3
23                  COc1ccc(-c2cc(=S)ss2)cc1  Vero E6                   106
24  CC(=O)OCC(=O)[C@@]1(O)CC[C@H]2[C@@H]3CCC4=CC(=O)CC[C@]4(C)[C@H]3C(=O)C[C@@]21C [cortisone-acetate]  Vero E6                  99.3

The measured values listed here are drawn from the supplement of paper PMC13380429.
